Source listed as patent US10660967B2.

system: A-549 (lung) carcinoma cell line; assay: Anti-tumor properties, MTT; assay type: cell-based; conditions: Homo sapiens, A549
For each entry below, report its IC50 value.
Please reply with the bare figure in µM and do not write the unit itself.

Item COc1cc(/C=C/C(=O)CC(=O)/C=C/c2ccc(OC(=O)[C@H](C)N)c(OC)c2)ccc1OC(=O)[C@H](C)N.Cl.Cl [HCl-L-Ala-Cur] ; assay system A-549 (lung) carcinoma cell line; IC50 reported as 21.7

Item `COc1cc(/C=C/C(=O)CC(=O)/C=C/c2ccc(OC(=O)[C@H](CCC(N)=O)NC(=O)OCc3ccccc3)c(OC)c2)ccc1OC(=O)[C@H](CCC(N)=O)NC(=O)OCc1ccccc1` ; assay system A-549 (lung) carcinoma cell line; IC50 reported as 46.1

Item COc1cc(/C=C/C(=O)CC(=O)/C=C/c2ccc(OC(=O)[C@H](N)CCSC)c(OC)c2)ccc1OC(=O)[C@H](N)CCSC.Cl.Cl [HCl-D-Met-Cur] ; assay system A-549 (lung) carcinoma cell line; IC50 reported as 20

Item `COc1cc(/C=C/C(=O)CC(=O)/C=C/c2ccc(OC(=O)[C@@H](C)NC(=O)OC(C)(C)C)c(OC)c2)ccc1OC(=O)[C@@H](C)NC(=O)OC(C)(C)C` ; assay system A-549 (lung) carcinoma cell line; IC50 reported as 85.4
